These measurements were taken from patent US8802353B2.

Assay: Adhesion to silicon substrate
Assay type: physicochemical
Design: key: rated A when the film was not peeled from the silicon wafer; rated C when peeled off
Details: silicon wafer surface-treated with silane coupling agent
Property Measured: Adhesion to silicon substrate

Solved entries:
compound="CC(C)(C)OC(=O)Oc1ccc(-c2cc(-c3ccc(OC(=O)OC(C)(C)C)cc3)cc(-c3ccc(OC(=O)OC(C)(C)C)cc3)c2)cc1 [Compound 204, reference compound]" result=A
compound="CCOC(C)Oc1c(C)cc(C(c2ccc3cc(C(c4cc(C)c(O)c(C)c4C)c4cc(C)c(O)c(C)c4C)ccc3c2)c2cc(C)c(O)c(C)c2C)c(C)c1C (stereo not drawn) [Compound 111]" result=A
compound="Cc1cc(C(c2cc(C(c3cc(C)c(OC(=O)OC(C)(C)C)c(C)c3C)c3cc(C)c(OC(=O)OC(C)(C)C)c(C)c3C)cc(C(c3cc(C)c(OC(=O)OC(C)(C)C)c(C)c3C)c3cc(C)c(OC(=O)OC(C)(C)C)c(C)c3C)c2)c2cc(C)c(OC(=O)OC(C)(C)C)c(C)c2C)c(C)c(C)c1OC(=O)OC(C)(C)C [Compound 117]" result=A
compound="Cc1cc(O)c(C(C)C)cc1C(c1ccc2cc(C(c3cc(C(C)C)c(O)cc3C)c3cc(C(C)C)c(OC(C)OC4CCCCC4)cc3C)ccc2c1)c1cc(C(C)C)c(O)cc1C (stereo not drawn) [Compound 113]" result=A
compound="Cc1cc(C(c2cc(C(c3cc(C)c(O)c(C)c3C)c3cc(C)c(O)c(C)c3C)cc(C(c3cc(C)c(O)c(C)c3C)c3cc(C)c(OC(C)OC4CCCCC4)c(C)c3C)c2)c2cc(C)c(O)c(C)c2C)c(C)c(C)c1O (stereo not drawn) [Compound 119]" result=A

May I ask what Adhesion to silicon substrate has been recorded for CC(C)(C)OC(=O)Oc1ccc(C(c2ccc(OC(=O)OC(C)(C)C)cc2)c2ccc(OC(=O)OC(C)(C)C)cc2)cc1 [Compound 203, reference compound] ?
A

Another compound to look at: CCOC(C)Oc1ccc(C(C)(c2ccc(O)c(C)c2)c2ccc3ccccc3c2)cc1C (stereo not drawn) [Compound 207, reference compound]
A

Another compound to look at: Cc1cc(C(c2ccc3cc(C(c4cc(C)c(O)cc4C)c4cc(C)c(OC(C)OC5CCCCC5)cc4C)ccc3c2)c2cc(C)c(O)cc2C)c(C)cc1O (stereo not drawn) [Compound 110]
A

Another compound to look at: CCOC(C)Oc1cc(C)c(C(c2ccc3cc(C(c4cc(C)c(O)cc4C)c4cc(C)c(O)cc4C)ccc3c2)c2cc(C)c(O)cc2C)cc1C (stereo not drawn) [Compound 109]
A

====

Test: Film-forming property (spin-coated film on silicon wafer)
Type: physicochemical
Parameters: key: rated C when the film was clouded or its surface was roughened; rated B when the film was partly clouded or roughened; rated A when the film had a good surface flatness without causing clouding
Conditions: 3% by weight solution spin-coated, 110° C. 3 min
Property Measured: film-forming property

compound="Cc1cc(C(c2ccc(-c3cccc(-c4ccc(C(c5cc(C)c(O)cc5C)c5cc(C)c(OC(C)OC6CCCCC6)cc5C)cc4)c3)cc2)c2cc(C)c(O)cc2C)c(C)cc1O (stereo not drawn)" result=A
compound="Cc1cc(C(C)(c2ccc(OC(C)OC3CCCCC3)c(C)c2)c2ccc3ccccc3c2)ccc1O (stereo not drawn) [Compound 208, reference compound]" result=A
compound="Cc1cc(O)c(C(C)C)cc1C(c1ccc2cc(C(c3cc(C(C)C)c(O)cc3C)c3cc(C(C)C)c(OC(C)OC4CCCCC4)cc3C)ccc2c1)c1cc(C(C)C)c(O)cc1C (stereo not drawn)" result=A

====

Experiment: Glass transition temperature, crystallization temperature and quantity of crystallization heat (DSC)
Type: physicochemical
Details: DSC, 20° C./min, nitrogen gas flow
Property Measured: Glass transition temperature (°C)

compound="Oc1ccc(C2(c3ccc(O)cc3)c3ccccc3-c3ccccc32)cc1 [Compound 209, bisphenol fluorene, reference compound]" property_measured="Glass transition temperature" readout_number=101
compound=Cc1cc(C(c2ccc(-c3ccc(-c4ccc(C(c5cc(C)c(O)cc5C)c5cc(C)c(O)cc5C)cc4)cc3)cc2)c2cc(C)c(O)cc2C)c(C)cc1O property_measured="Glass transition temperature" readout_number=147
compound=Cc1cc(C(c2ccc3ccc(C(c4cc(C)c(O)c(C)c4C)c4cc(C)c(O)c(C)c4C)cc3c2)c2cc(C)c(O)c(C)c2C)c(C)c(C)c1O property_measured="Glass transition temperature" readout_number=156
compound=Cc1cc(C(c2cc(C(c3cc(C)c(O)c(C)c3C)c3cc(C)c(O)c(C)c3C)cc(C(c3cc(C)c(O)c(C)c3C)c3cc(C)c(O)c(C)c3C)c2)c2cc(C)c(O)c(C)c2C)c(C)c(C)c1O property_measured="Glass transition temperature" readout_number=125
compound=Cc1cc(C(c2ccc(-c3cccc(-c4ccc(C(c5cc(C)c(O)cc5C)c5cc(C)c(O)cc5C)cc4)c3)cc2)c2cc(C)c(O)cc2C)c(C)cc1O property_measured="Glass transition temperature" readout_number=137

I = Cc1cc(C(C)(c2ccc(O)c(C)c2)c2ccc3ccccc3c2)ccc1O [Compound 206, reference compound]
II = Cc1cc(C(c2ccc3ccc(C(c4cc(C)c(O)cc4C)c4cc(C)c(O)cc4C)cc3c2)c2cc(C)c(O)cc2C)c(C)cc1O
Endpoint returns whichever of I and II has the numerically higher Glass transition temperature. Which one? Tell me its label.
II
